- test: AUC in Sprague-Dawley rat at 5 mg/kg, po
- Assay type: ADME, organism-based
- Parameters: dose 5 mg/kg, route oral
- measurement_context: plasma
quantity_kind: AUC (ng·h/mL)
Write the number in ng·h/mL without appending the unit.

COc1ncc(-c2ccc3nc(N)n(-c4ccccc4)c(=O)c3c2)cc1NS(=O)(=O)c1ccc(F)cc1F 60200

Prompt line: Endpoint output: AUC of COc1ncc(-c2ccc3nc(N)c(-c4ccc(N5CCOCC5)cc4)cc3c2)cc1NS(=O)(=O)c1ccc(F)cc1F . Value?
Response line: 5000

----------
- test: Volume of distribution at steady state in Sprague-Dawley rat at 1 mg/kg, iv
- Format: ADME, organism-based
- Set-up: dose 1 mg/kg, route intravenous
- measurement_context: Sprague-Dawley, in vivo, read-out: Vdss
quantity_kind: Vd (L/kg)
Report as a plain number; the unit L/kg is understood.

Prompt line: Recorded Vd for COc1ncc(-c2ccc3nc(N)n(-c4ccccc4C(F)(F)F)c(=O)c3c2)cc1S(=O)(=O)Nc1ccc(F)cc1F (atropisomer aR) , please?
Response line: 0.55
